- System: L6
- Measurement Description: Cytotoxicity against rat L6 cells measured after 72 hrs by alamar blue assay
- Assay type: cell-based
- Assay Setup: L6, 72 h
Quantity Name: IC50
Field: value (include unit after the number)

Study these solved cases before continuing.
Cc1ccc2[nH]cc(C(=O)C(=O)NCCCNCCCCNCCCNC(=O)C(=O)c3c[nH]c4ccc(C)cc34)c2c1.O=C(O)C(F)(F)F.O=C(O)C(F)(F)F : 63.8 µM
O=C(NCCCNCCCCNCCCNC(=O)C(=O)c1c[nH]c2c(Cl)cccc12)C(=O)c1c[nH]c2c(Cl)cccc12.O=C(O)C(F)(F)F.O=C(O)C(F)(F)F : 7.47 µM
O=C(NCCCNCCCCNCCCNC(=O)C(=O)c1c[nH]c2ccc(Br)cc12)C(=O)c1c[nH]c2ccc(Br)cc12.O=C(O)C(F)(F)F.O=C(O)C(F)(F)F : 19.8 µM
O=C(NCCCNCCCCNCCCNC(=O)C(=O)c1c[nH]c2c(F)cccc12)C(=O)c1c[nH]c2c(F)cccc12.O=C(O)C(F)(F)F.O=C(O)C(F)(F)F : 38.7 µM
O=C(NCCCNCCCCNCCCNC(=O)C(=O)c1c[nH]c2ccc(F)cc12)C(=O)c1c[nH]c2ccc(F)cc12.O=C(O)C(F)(F)F.O=C(O)C(F)(F)F : 71.1 µM

### Prompt Recorded IC50 for COC(=O)c1ccc2c(C(=O)C(=O)NCCCNCCCCNCCCNC(=O)C(=O)c3c[nH]c4cc(C(=O)OC)ccc34)c[nH]c2c1.O=C(O)C(F)(F)F.O=C(O)C(F)(F)F with L6, please?
### Response 63.6 µM

### Prompt Entry to check: N#Cc1ccc2[nH]cc(C(=O)C(=O)NCCCNCCCCNCCCNC(=O)C(=O)c3c[nH]c4ccc(C#N)cc34)c2c1.O=C(O)C(F)(F)F.O=C(O)C(F)(F)F
### Response 37.1 µM

### Prompt Next compound: O=C(NCCCNCCCCNCCCNC(=O)C(=O)c1c[nH]c2cc(F)ccc12)C(=O)c1c[nH]c2cc(F)ccc12.O=C(O)C(F)(F)F.O=C(O)C(F)(F)F
### Response 69.1 µM

### Prompt Now the same for O=C(NCCCNCCCCNCCCNC(=O)C(=O)c1c[nH]c2cc(Br)c(Br)cc12)C(=O)c1c[nH]c2cc(Br)c(Br)cc12.O=C(O)C(F)(F)F.O=C(O)C(F)(F)F
### Response 6.03 µM

### Prompt Also O=C(NCCCNCCCCNCCCNC(=O)C(=O)c1c[nH]c2cc(C(F)(F)F)ccc12)C(=O)c1c[nH]c2cc(C(F)(F)F)ccc12.O=C(O)C(F)(F)F.O=C(O)C(F)(F)F ?
### Response 31.4 µM

### Prompt Can you check COc1ccc2c(C(=O)C(=O)NCCCNCCCCNCCCNC(=O)C(=O)c3c[nH]c4cc(OC)ccc34)c[nH]c2c1 next?
### Response 54 µM

### Prompt And then O=C(NCCCNCCCCNCCCNC(=O)C(=O)c1c[nH]c2cc(Cl)ccc12)C(=O)c1c[nH]c2cc(Cl)ccc12.O=C(O)C(F)(F)F.O=C(O)C(F)(F)F , what is it?
### Response 33.2 µM

# credit: ChEMBL document CHEMBL4311975
